Listing of entries alongside the reported inhibition at 1 µM.
target: human μ-opiate receptor (Homo sapiens); construct: purchased Nen company, Zaventem, Belgium RB-HOM; host or cells: CHO-K1 cells (membrane preparation); assay: Affinity for the human μ-opiate receptor ([3H]-naloxone displacement, SPA, CHO-K1 membrane preparation); conditions: test substance 1 μmole/l; displacement of 1 nmole/l [3H]-naloxone; percentage inhibition of the specific binding; read-out: μ-opioid receptor, % inhibition [1 μM]

{"columns": ["compound", "u", "inhibition at 1 µM"],
 "data": [
  ["CC1CN(c2oc(C(C3CCC(C(c4cccs4)N(C)C)CC3)N3CCOCC3)nc2Cc2ccccc2)CC(C)O1 (stereo not drawn)", "%", 65],
  ["CN(C)C(c1cccs1)C1CCC(CC(c2nc(Cc3ccccc3)c(N3CCOCC3)o2)N2CCN(c3ccc(F)cc3)CC2)CC1 (stereo not drawn)", "%", 87],
  ["COc1ccc(N2CCN(C(CC3CCC(C(c4cccc(F)c4)N(C)C)CC3)c3nc(Cc4ccccc4)c(N4CCOCC4)o3)CC2)cc1 (stereo not drawn)", "%", 86],
  ["CCN(CC)C(CC1CCC(C(c2ccc(F)cc2)N(C)C)CC1)c1nc(Cc2ccccc2)c(N(C)Cc2ccccc2)o1 (stereo not drawn)", "%", 60],
  ["CN(C)C(c1cccs1)C1CCC(CC(c2nc(Cc3ccccc3)c(N3CCN(c4ccccc4)CC3)o2)N2CCN(Cc3ccccc3)CC2)CC1 (stereo not drawn)", "%", 91],
  ["CN(C)C(c1cccs1)C1CCC(CC(c2nc(Cc3ccccc3)c(N3CCC(Cc4ccccc4)CC3)o2)N2CCCCC2)CC1 (stereo not drawn)", "%", 69]
]}

* * *

target: human μ-opiate receptor (Homo sapiens, UniProt P35372); construct: purchased Nen company, Zaventem, Belgium RB-HOM; host or cells: CHO-K1 cells (membrane preparation); assay: Affinity for the human μ-opiate receptor ([3H]-naloxone displacement, SPA, CHO-K1 membrane preparation); details: test substance 1 μmole/l; displacement of 1 nmole/l [3H]-naloxone; percentage inhibition of the specific binding; read-out: μ-opioid receptor, % inhibition [1 μM]
Sequence (P35372 whole entry): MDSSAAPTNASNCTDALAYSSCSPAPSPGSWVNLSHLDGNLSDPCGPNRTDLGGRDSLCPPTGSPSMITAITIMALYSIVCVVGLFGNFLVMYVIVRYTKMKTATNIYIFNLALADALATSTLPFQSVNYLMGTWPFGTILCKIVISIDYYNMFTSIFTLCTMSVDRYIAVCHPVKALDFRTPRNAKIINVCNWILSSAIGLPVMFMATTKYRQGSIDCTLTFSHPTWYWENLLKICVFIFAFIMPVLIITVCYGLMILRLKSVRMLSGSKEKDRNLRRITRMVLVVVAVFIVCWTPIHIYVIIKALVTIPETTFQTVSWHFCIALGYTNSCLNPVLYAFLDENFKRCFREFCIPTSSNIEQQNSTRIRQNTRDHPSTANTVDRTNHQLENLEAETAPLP
readoutKind: inhibition at 1 µM (%)

{"columns": ["molecule", "systemTested", "u", "dataValue"],
 "data": [
  ["COc1ccc(N2CCN(c3oc(C(CC4CCC(C(c5cccc(F)c5)N(C)C)CC4)N4CCOCC4)nc3Cc3ccccc3)CC2)cc1 (stereo not shown)", "human μ-opiate receptor (Homo sapiens, UniProt P35372)", "%", 89],
  ["CCN(CC)c1oc(C(CC2CCC(C(c3cccs3)N(C)C)CC2)N(CC)CC)nc1Cc1ccccc1 (stereo not shown)", "human μ-opiate receptor (Homo sapiens, UniProt P35372)", "%", 94],
  ["CN(CCc1ccccc1)c1oc(C(CC2CCC(C(c3ccc(Cl)cc3)N(C)C)CC2)N2CCCCC2)nc1Cc1ccccc1 (stereo not shown)", "human μ-opiate receptor (Homo sapiens, UniProt P35372)", "%", 63],
  ["COc1ccc(N2CCN(c3oc(C(C4CCC(C(c5cccs5)N(C)C)CC4)N4CCc5ccccc5C4)nc3Cc3ccccc3)CC2)cc1 (stereo not shown)", "human μ-opiate receptor (Homo sapiens, UniProt P35372)", "%", 91],
  ["CN(C)C(c1ccc(Cl)cc1)C1CCC(C(c2nc(Cc3ccccc3)c(N3CCCC3)o2)N2CCN(c3ccc(F)cc3)CC2)CC1 (stereo not shown)", "human μ-opiate receptor (Homo sapiens, UniProt P35372)", "%", 64],
  ["CC1CCN(c2oc(C(CC3CCC(C(c4cccs4)N(C)C)CC3)N3CCN(Cc4ccccc4)CC3)nc2Cc2ccccc2)CC1 (stereo not shown)", "human μ-opiate receptor (Homo sapiens, UniProt P35372)", "%", 97],
  ["CC1CC(C)CN(c2oc(C(C3CCC(C(c4ccc(Cl)cc4)N(C)C)CC3)N(C)c3ccccc3)nc2Cc2ccccc2)C1 (stereo not shown)", "human μ-opiate receptor (Homo sapiens, UniProt P35372)", "%", 79]
]}

* * *

biological target: human μ-opiate receptor (Homo sapiens); construct: purchased Nen company, Zaventem, Belgium RB-HOM; host or cells: CHO-K1 cells (membrane preparation); experiment: Affinity for the human μ-opiate receptor ([3H]-naloxone displacement, SPA, CHO-K1 membrane preparation); settings: test substance 1 μmole/l; displacement of 1 nmole/l [3H]-naloxone; percentage inhibition of the specific binding; read-out: μ-opioid receptor, % inhibition [1 μM]
Respond with 1 for inhibition at 1 µM values of 90% and above, 0 for values below.

{"columns": ["compound", "classAssignment"],
 "data": [
  ["CC1CCCN(c2oc(C(C3CCC(C(c4ccc(F)cc4)N(C)C)CC3)N3CCCCC3)nc2Cc2ccccc2)C1 (stereo not drawn) [compound 33]", 0],
  ["COc1ccc(N2CCN(c3oc(C(CC4CCC(C(c5cccc(F)c5)N(C)C)CC4)N4CCN(c5ccc(OC)cc5)CC4)nc3Cc3ccccc3)CC2)cc1 (stereo not drawn) [compound 155]", 0],
  ["CCN(CC)C(CC1CCC(C(c2ccc(F)cc2)N(C)C)CC1)c1nc(Cc2ccccc2)c(N2CCN(Cc3ccccc3)CC2)o1 (stereo not drawn) [compound 68]", 0],
  ["CCN(CC)C(CC1CCC(C(c2cccs2)N(C)C)CC1)c1nc(Cc2ccccc2)c(N2CCCC(C)C2)o1 (stereo not drawn) [compound 116]", 1],
  ["COc1ccc(N2CCN(c3oc(C(CC4CCC(C(c5cccs5)N(C)C)CC4)N4CCN(c5ccc(F)cc5)CC4)nc3Cc3ccccc3)CC2)cc1 (stereo not drawn) [compound 162]", 1],
  ["CCN(CC)C(CC1CCC(C(c2cccs2)N(C)C)CC1)c1nc(Cc2ccccc2)c(N2CCSCC2)o1 (stereo not drawn) [compound 115]", 1],
  ["CN(C)C(c1cccs1)C1CCC(C(c2nc(Cc3ccccc3)c(N3CCSCC3)o2)N2CCCCC2)CC1 (stereo not drawn) [compound 48]", 0],
  ["CN(C)C(c1cccs1)C1CCC(CC(c2nc(Cc3ccccc3)c(N3CCSCC3)o2)N2CCCCC2)CC1 (stereo not drawn) [compound 110]", 1],
  ["CCN(CC)C(c1nc(Cc2ccccc2)c(N2CCN(c3ccccc3)CC2)o1)C1CCC(C(c2cccs2)N(C)C)CC1 (stereo not drawn) [compound 31]", 0],
  ["CCN(CC)C(c1nc(Cc2ccccc2)c(N(C)Cc2ccccc2)o1)C1CCC(C(c2ccc(Cl)cc2)N(C)C)CC1 (stereo not drawn) [compound 21]", 0],
  ["CCN(CC)c1oc(C(C2CCC(C(c3cccs3)N(C)C)CC2)N(CC)CC)nc1Cc1ccccc1 (stereo not drawn) [compound 50]", 0],
  ["CC1CN(c2oc(C(C3CCC(C(c4cccs4)N(C)C)CC3)N3CCc4ccccc4C3)nc2Cc2ccccc2)CC(C)O1 (stereo not drawn) [compound 148]", 0],
  ["CCN(CC)C(c1nc(Cc2ccccc2)c(N2CCC(C)CC2)o1)C1CCC(C(c2ccc(Cl)cc2)N(C)C)CC1 (stereo not drawn) [compound 20]", 0],
  ["COc1ccc(N2CCN(C(c3nc(Cc4ccccc4)c(N4CCCC4)o3)C3CCC(C(c4cccc(F)c4)N(C)C)CC3)CC2)cc1 (stereo not drawn) [compound 123]", 0],
  ["COc1ccc(N2CCN(c3oc(C(CC4CCC(C(c5cccs5)N(C)C)CC4)N4CCN(c5ccc(OC)cc5)CC4)nc3Cc3ccccc3)CC2)cc1 (stereo not drawn) [compound 164]", 1],
  ["CC1CCN(c2oc(C(CC3CCC(C(c4ccc(Cl)cc4)N(C)C)CC3)N3CCCCC3)nc2Cc2ccccc2)CC1 (stereo not drawn) [compound 57]", 0],
  ["CCN(CC)C(c1nc(Cc2ccccc2)c(N2CCCC(C)C2)o1)C1CCC(C(c2cccs2)N(C)C)CC1 (stereo not drawn) [compound 51]", 1],
  ["CN(C)C(c1ccc(F)cc1)C1CCC(C(c2nc(Cc3ccccc3)c(N3CCCC3)o2)N2CCCCC2)CC1 (stereo not drawn) [compound 17]", 0],
  ["COc1ccc(N2CCN(C(c3nc(Cc4ccccc4)c(N4CCOCC4)o3)C3CCC(C(c4cccs4)N(C)C)CC3)CC2)cc1 (stereo not drawn) [compound 144]", 0],
  ["CN(C)C(c1cccc(F)c1)C1CCC(C(c2nc(Cc3ccccc3)c(N3CCCC3)o2)N2CCc3ccccc3C2)CC1 (stereo not drawn) [compound 125]", 0],
  ["COc1ccc(N2CCN(C(c3nc(Cc4ccccc4)c(N4CCCC4)o3)C3CCC(C(c4ccc(Cl)cc4)N(C)C)CC3)CC2)cc1 (stereo not drawn) [compound 134]", 0],
  ["CCN(CC)C(CC1CCC(C(c2cccs2)N(C)C)CC1)c1nc(Cc2ccccc2)c(N2CCN(Cc3ccccc3)CC2)o1 (stereo not drawn) [compound 78]", 1],
  ["CN(C)C(c1cccc(F)c1)C1CCC(C(c2nc(Cc3ccccc3)c(N3CCOCC3)o2)N2CCOCC2)CC1 (stereo not drawn) [compound 121]", 0],
  ["CN(Cc1ccccc1)c1oc(C(CC2CCC(C(c3ccc(Cl)cc3)N(C)C)CC2)N2CCCCC2)nc1Cc1ccccc1 (stereo not drawn) [compound 58]", 0]
]}
